Exercise: state measured percent of OC released for each of the molecules provided.
assay: Tamper resistance: percent of OC released under tampering conditions, LC-MS/MS; assay type: physicochemical; conditions: Water, RT, 24 hours

// query # lookup: percent of OC released of COc1ccc(C(=O)OC2=CC[C@@]3(O)[C@H]4Cc5ccc(OC)c6c5[C@@]3(CCN4C)[C@H]2O6)cc1 [Conjugate 4-MeO-Bz-OC]
// result <1%

// query # lookup: percent of OC released of COc1ccc2c3c1O[C@H]1C(OC(=O)c4cccc(N)c4)=CC[C@@]4(O)[C@@H](C2)N(C)CC[C@]314 [Conjugate 3-ABz-OC]
// result 0%

// query # lookup: percent of OC released of COc1ccc2c3c1O[C@H]1C(OC(=O)c4ccc(O)cc4)=CC[C@@]4(O)[C@@H](C2)N(C)CC[C@]314 [Conjugate 4-OH-Bz-OC]
// result 0%

// query # lookup: percent of OC released of `COc1ccc(C(=O)OC2=CC[C@@]3(OC(=O)c4ccc(OC)cc4)[C@H]4Cc5ccc(OC)c6c5[C@@]3(CCN4C)[C@H]2O6)cc1`
// result 0%

// query # lookup: percent of OC released of `COc1ccc2c3c1O[C@H]1C(OC(=O)c4ccccc4)=CC[C@@]4(O)[C@@H](C2)N(C)CC[C@]314`
// result 0%

// query # lookup: percent of OC released of COc1ccc2c3c1OC1C(OC(=O)C(C)c4ccc(CC(C)C)cc4)=CCC4(O)C(C2)N(C)CCC314 (mixture of isomers) [Conjugate 6-lbu-OC]
// result 0%

----------
test: Tamper resistance: percent of OC released under tampering conditions, LC-MS/MS; format: physicochemical; conditions: 1N HCl, RT, 1 hour
Exercise: state measured percent of OC released for each of the molecules provided.

// query # lookup: percent of OC released of `COc1cc(C(=O)OC2=CC[C@@]3(O)[C@H]4Cc5ccc(OC)c6c5[C@@]3(CCN4C)[C@H]2O6)ccc1O`
// result 0%

// query # lookup: percent of OC released of `COc1ccc2c3c1O[C@H]1C(OC(=O)c4cccc(N)c4)=CC[C@@]4(OC(=O)c5cccc(N)c5)[C@@H](C2)N(C)CC[C@]314`
// result 0%

// query # lookup: percent of OC released of COc1ccc2cc(C(C)C(=O)OC3=CCC4(O)C5Cc6ccc(OC)c7c6C4(CCN5C)C3O7)ccc2c1 (stereo not drawn)
// result <1%

----------
assay: Intranasal PK in rats (Table 4); conditions: title: oxymorphone released (released oxycodone), equivalent to 2 mg/kg freebase oxycodone
Exercise: state measured Cmax for each of the compounds provided.
Number only, in ng/mL; omit the unit.

// query # lookup: Cmax of COc1ccc(C(=O)OC2=CC[C@@]3(O)[C@H]4Cc5ccc(OC)c6c5[C@@]3(CCN4C)[C@H]2O6)cc1 [Conjugate 4-MeO-Bz-OC]
// result 949.4

// query # lookup: Cmax of COc1ccc2c3c1OC1C(OC(=O)C(C)c4ccc(CC(C)C)cc4)=CCC4(O)C(C2)N(C)CCC314 (mixture of isomers) [Conjugate 6-lbu-OC]
// result 131.7

// query # lookup: Cmax of COc1ccc2c3c1O[C@H]1C(OC(=O)c4ccc(O)cc4)=CC[C@@]4(O)[C@@H](C2)N(C)CC[C@]314 [Conjugate 4-OH-Bz-OC]
// result 759.2
